Tested on: VEGFR2;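 further: KINOMEscan kinase panel screen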
Construct: gene KDR
Conditions: concentration: 1 μM,replicates: in singlicate; n = 1
quantityMeasured: %Inh (%)
Numbers only, in %.

Some compounds with known %Inh results, for comparison:
CN(c1cccc(CNc2nc(Nc3ccc4c(c3)CC(=O)N4)ncc2C(F)(F)F)c1)S(C)(=O)=O = 37
O=C(NCC1CC1)c1ccc(-c2cc(C(=O)NC3CC3)ccc2F)cc1 [GW810445] = 0
COc1cc2ncn(-c3cc(OCC4CCCCC4)c(C(N)=O)s3)c2cc1OC [GSK204559] = 4

--- query ---
For this compound ( COc1cccc(OC)c1C(=O)Nc1cccc(-c2nn3ccccc3c2-c2ccnc(Nc3cccc(F)c3)n2)c1 [GSK361065] ), measured %Inh is 18
